Give pKa for every item shown.
- assay.procedure: Apparent (surface) pKa of the LNP formulation (TNS assay)
- Format: physicochemical
- condition.summary: Table 1A
Give bare numbers.

Below: 5 compounds and their reported pKa.
CCCCCCCCC(CCCCCCCC)OC(=O)CCCCCCCN(CCO)CCCC(=O)OC1CCC(CCCCC)CC1 (stereo not drawn) | 6.38
CCCCCCCCOP(=O)(OCCCCCCCC)OCCCCCCCN(CCO)CCCCCCCC(=O)OC(C)CCCCCCCC (stereo not drawn) | 7.34
CCCCCCCCC(CCCCCCCC)OC(=O)CCCCCCCN(CCO)CCCC(=O)OC(CCCCCC)CCCCCCCC (stereo not drawn) | 5.95
CCCCCCCCC(CCC)OC(=O)CCCCCCCN(CCO)CCCCCCCC(=O)OC(CCCCCCCC)CCCCCCCC (stereo not drawn) | 6.42
CCCCCCCCCOC(=O)CCCCCCCN(CCCCCCCC(=O)OC(CCCCCCCC)CCCCCCCC)CCCNc1c(NC)c(=O)c1=O | 6.48

For every listed record, write down its pKa.
1. CCCCCCCCCOC(=O)CCCCCCCN(CCCCCCCC(=O)OC(CCCCCCCC)CCCCCCCC)C1CCCCC1O (stereo not drawn)
2. CCCCCCCCCOC(=O)CCCCCCCN(CCCCCCCC(=O)OC(CCCCCCCC)CCCCCCCC)CCCn1cnc2c(N)ncnc21
3. CCCCCCCCCOC(=O)CCCCCCCN(CCCCCCCC(=O)OC(CCCCCCCC)CCCCCCCC)C[C@H](C)O

Result:
6.21
5.66
5.99

The measured values listed here are drawn from patent US12263248B2.
